Data provenance is paper PMC7284125.

Tested on: S. mansoni adult worms
Experiment: Motility assay on adult parasites (pixel displacement, relative to DMSO control)
Assay type: cell-based, Schistosoma mansoni
Conditions: secondary screen, 10 μM, D5, Male adult worms
Simple rule here: Fractional motility less than -0.1 is Condition met, otherwise Condition not met.

[[record]]
compound = "O=C1CCc2ccc(OCCCCN3CCN(c4cccc(Cl)c4Cl)CC3)cc2N1"
category_label = "Condition met"

[[record]]
compound = "Cc1cccc(C(C)c2cnc[nH]2)c1C (centres unmarked)"
category_label = "Condition not met"

[[record]]
compound = "O=c1[nH]c2ccc(Cl)cc2c(N[C@@H]2CN3CCC2CC3)c1-c1nc2ccccc2[nH]1"
category_label = "Condition met"

[[record]]
compound = "CN1CCC(CNc2ccc3ncc(-c4cccc(OC(F)(F)F)c4)n3n2)CC1"
category_label = "Condition not met"

[[record]]
compound = "C[C@]12CC[C@@H]3c4ccc(O)cc4CC[C@H]3[C@@H]1CC[C@@H]2O"
category_label = "Condition not met"


---

Tested on: S. mansoni schistosomulae
Assay: Motility assay on schistosomulae (pixel displacement, relative to DMSO control)
Type: cell-based, Schistosoma mansoni
Conditions: schistosomulae, 6h exposure, read at D1, 10 µM
Simple rule here: Fractional motility less than 2 is MET, otherwise NOT MET.

[[record]]
compound = "COCCn1c2c([n+](Cc3cnccn3)c1C)C(=O)c1ccccc1C2=O"
category_label = "MET"

[[record]]
compound = "O=[N+]([O-])c1ccc2c(c1)S(=O)(=O)C=C2"
category_label = "MET"

[[record]]
compound = "COC(=O)C1=CCCN(C)C1"
category_label = "MET"

[[record]]
compound = "COc1cc(N2CCC(N)CC2)ccc1Nc1ncc(Cl)c(-c2c[nH]c3ccccc23)n1"
category_label = "NOT MET"

[[record]]
compound = "CNCc1ccc(-c2cc(-c3nc(-c4ccc(S(=O)(=O)C(C)C)cc4)cnc3N)on2)cc1"
category_label = "NOT MET"

[[record]]
compound = "CCc1ccc(OCc2ccccc2C(=O)Nc2ccc3nc(C)cc(N)c3c2)cc1"
category_label = "MET"

[[record]]
compound = "COC(=O)C1=C(C)NC(C)=C(C(=O)OCCN2CCN(C(c3ccccc3)c3ccccc3)CC2)C1c1cccc([N+](=O)[O-])c1 (stereo not drawn)"
category_label = "MET"

[[record]]
compound = "C[C@@H](NCCCc1cccc(C(F)(F)F)c1)c1cccc2ccccc12"
category_label = "NOT MET"

[[record]]
compound = "C=C1C(=O)O[C@@H]2/C=C(\\C)CC/C=C(\\C)CC[C@@H]12 [Costunolide]"
category_label = "NOT MET"

[[record]]
compound = "C=CC(=O)Nc1cc(Nc2nccc(-c3cn(C)c4ccccc34)n2)c(OC)cc1N(C)CCN(C)C"
category_label = "MET"

[[record]]
compound = "Cc1ccc(S(=O)(=O)c2ccc([N+](=O)[O-])o2)cc1"
category_label = "MET"

[[record]]
compound = "c1ccc(CNc2nc(NCc3ccccc3)c3ccccc3n2)cc1"
category_label = "MET"

[[record]]
compound = "c1cc(-c2cnn3cc(-c4ccc(N5CCNCC5)cc4)cnc23)c2cccnc2c1"
category_label = "MET"

[[record]]
compound = "CC(=O)c1cc([N+](=O)[O-])c(Sc2ccc(F)cc2F)s1"
category_label = "NOT MET"

[[record]]
compound = "C=C1C(=O)O[C@H]2[C@H]1CC/C(C)=C/CC[C@@]1(C)O[C@@H]21 [(-)-Parthenolide]"
category_label = "NOT MET"

[[record]]
compound = "O=[N+]([O-])C=Cc1ccc2c(c1)OCO2"
category_label = "MET"

[[record]]
compound = "O=C1Cc2cc(CCN3CCN(c4nsc5ccccc45)CC3)c(Cl)cc2N1"
category_label = "MET"

[[record]]
compound = "CCOC(=O)CCNc1cc(N2CCc3ccccc3CC2)nc(-c2ccccn2)n1"
category_label = "MET"

